Tested on: K4 kissing-loop RNA reporter;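 further: bound reporter read as fluorescence of individual clusters on recovered sequencing chips by microscopy, with normalized cluster intensities fitted with a binding model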
Assay: apparent KD of K4 kissing-loop reporter; higher = weaker reporter binding
Settings: Eterna round: R107; input ligand: theophylline 20 uM
Quantity Kind: apparent KD of K4 kissing-loop reporter (nM)
Lab book: enter the figure in nM, no units written.

Would you please look over these solved cases?
Sequence Record	System Under Test	apparent KD of K4 kissing-loop reporter, nM
UUAGGAGUGGAAGGAUAUCCUGGUGUGGGUGAUGUUAGUGAUGUUGAAAGUGCAGUGAUGUUGCGCGGAGAAGGUCCGGUGUUGA [BDazzled - #7 - Exc. FMN B]	K4 kissing-loop RNA reporter	256
AUUUGUUUAUGCGAUACCAGACUAAGCAGUGAUGUUGCUUUUAUUUUUGAAUUUUAAAUAGUCCCUUGGCAGCGCUAUGUCUGUA [#06 K4 Theophylline B Same State]	K4 kissing-loop RNA reporter	217
AGCUCAGAGUGACUCGAUAAGAGUCACAAACGAGGACCGGUACGGCCGCCACUCGAAAUAAUGGGAGUGAUGUUCUCACUGAGCA [#SwitchBubble 3 #StaticStem #K4Late]	K4 kissing-loop RNA reporter	796
CUUGAUGGAAACAUCGAGUAGAUUACUGAUACCAGUAUCGAUAGAUACCCUUGGCAGCAGAAUCAGUGAUCACGAGUGAUGUUCG [Ex Theophylline A K4 8]	K4 kissing-loop RNA reporter	451
CUUAAGAUAUGAGUGAUGUUUAUGUCCGAAGGAGCGUGCGAAAGUACAGGUAGGUCGCGGAUGUGAGUGAUGUUUAUGUAAGCGA [KL-XArg-A14 #analogue]	K4 kissing-loop RNA reporter	75

Need apparent KD of K4 kissing-loop reporter, item CACGGUUAUACGGCCGCCACUGAUUGCGUUGCAGUGAUGUUGCACGCGUCCGACUACACCUCAUUCAGGACCGGGUAGACAUGCA [theeternabot_exclusion_KL_Trp_B_11]
208

Look at this sequence and give its reported apparent KD of K4 kissing-loop reporter. AGUGCACUGUCAGGAUAUAUACAGUGAUGUUGUGUAUGUCAGCAAGUCAAAGACUUGCUAUUUUGUGUAGAAGGGACUGUGUACA [whbob_Ex_FMNB__2th221]
155

Find the recorded apparent KD of K4 kissing-loop reporter belonging to `AAAAUAAUCCAGUGAUGUUGGUUUCCAGAUACCAGCGACGAAAGUCGCCCUUGGCAGCUGUGGACGUACAAAAUAAGUACGUCCU` and report it.
276

Give its apparent KD of K4 kissing-loop reporter value. Item: `UGUGUUUACCUGACUCAGUGAUGUUGAGAAGGAGCGUGCGAAGGCACAGGUAGGUCGCUCAACCUAAAUUCAGGUGAGCACUAAA`
281

I am curious: what apparent KD of K4 kissing-loop reporter value has been reported for `AAGCAGUCACGCGAAGCCAUCGAAGAUGGCCGAGGACCGGUACGGCCGCCACUCGGAGUGAUGUUCCGAAGACUGCAAAAUAAAA` ?
468

# apparent KD of K4 kissing-loop reporter lookup, item GGAUCCACCAGUGAUGUUGGAGAAAACUCAAAGGAUAUGACGAAAGUCAGAAGGUUGUAGACUGGACAAAGUCCGGUCGGAUCCA [FmnA 19 A30+U56]
613

Fill in the blank: the reported apparent KD of K4 kissing-loop reporter of UCGAUGGCCAGCGAUACCAGCCCAGUGAUGUUGGGCACAUGGUUGCGGGAAAUCCCAUUGGGCCCUUGGCAGCGCUUGCAUGGGU [Dizaisa] is ____.
120

----------
Tested on: MS2 coat protein
Assay: apparent KD of MS2 coat protein; designed switch direction (-1 OFF switch, 1 ON switch): 1; higher = weaker reporter binding
Conditions: input ligand: none
Quantity Kind: apparent KD of MS2 coat protein (nM)
// units = nM; emit number, no label

Use the examples below as a reference point.
Sequence Record	Value
UUGUUUUGAAAUUAACAUGAGGAUCACCCAUGUCGUGAGACAGAGGAUAUACAGGAAUGUAGGUAGUAGAAGGCUGUUUAGUGU [JR_SSNG3_Sub099] (Eterna round: R96, puzzle: Same State NG 3)	142
GAAGCGGCAGAAUAAAACAUGAGGAUCACCCAUGUCGCGGUUUAGGAUAUGGGACGGGUAUGAACCCAGAAGGAGACCGCAGGC [Eternabot solution 2] (Eterna round: R96, puzzle: Same State NG 3)	56.2
GUGGUGAAUUAAGGAUAUCGAGUCUAGAUGUUAAACAUGAGGAUCACCCAUGUGGGUUGCGGUAUCGAGAAGGUAAUUUACGGG [salish99_SSNG2_r04_507] (Eterna round: R96, puzzle: Same State NG 2)	47.2

Next, consider the following sequence.
// returns reported apparent KD of MS2 coat protein for input ACAUGAGAAAGAGGAUAUUUUGUACCUACAUGUGACAUGAGGAUCACCCAUGUGGUAAGUAUGAGAAAGAAGGCUUAGAUAUGU [Equivalence 13 - Jieux - Same State NG 2] (Eterna round: R96, puzzle: Same State NG 2)
61.7

----------
Tested on: MS2 coat protein
Assay: apparent KD of MS2 coat protein; designed switch direction (-1 OFF switch, 1 ON switch): -1; higher = weaker reporter binding
Conditions: input ligand: FMN 200 uM
Label scheme for apparent KD of MS2 coat protein: lower than 60 nM is Not met, 60 nM and above is Met.

The following sequences have reported results that may help.
Sequence Record	System Under Test	Label
AAUGAUUGACGAGGAUAUUGUGUUAGAUCACGACGAGAAGGCGUUUGUCACAUGAGGAUCACCCAUGUGAGCCUUGUGGAUAGA [Ex NG1 #76] (Eterna round: R96, puzzle: Exclusion NG 1)	MS2 coat protein	Not met
GAUCAUGCAGGAUAUACAGUAACCAUGAAAACAUGGUUGCUACAUGAGGAUCACCCAUGUAGAAGGGCAUGAUC [Omei Ex2 A2] (Eterna round: R97, puzzle: Exclusion 2)	MS2 coat protein	Not met
CACUGGACAGGAUAUGUUCUUGAGCACUUGAGGAUCACCCAAGUCAUCAAGAACUCAGGCACAGAAGGGUUUAUGU [salish99_ex5_r4_014] (Eterna round: R97, puzzle: Exclusion 5)	MS2 coat protein	Not met

Does the sequence AGUGUGUGGCAGGAUAUGCAAUUUAUAGGUGAAGCAGAAGGGUCUACAUGAGGAUCACCCAUGUGUGCGGUUGA [Ex6 #20] (Eterna round: R97, puzzle: Exclusion 6) have recorded apparent KD of MS2 coat protein that is 60 nM or more?
Met

For this sequence, is measured apparent KD of MS2 coat protein 60 nM or higher? AAAUCUCACGUAAGGAUAUCCUGGGCAACGUCCACGGAGAAGGUACAUGAGGAUCACCCAUGUGCUCGCUAUAC [BmEX4 C.1] (Eterna round: R97, puzzle: Brourd's mod of Exclusion 4)
Not met

----------
Tested on: MS2 coat protein
Assay: apparent KD of MS2 coat protein; designed switch direction (-1 OFF switch, 1 ON switch): -1; higher = weaker reporter binding
Settings: input ligand: none
Recorded apparent KD of MS2 coat protein by entry
// return numeric value only (unit: nM, not printed)

Sequence Record	System Under Test	Quantity Kind	Unit Tag	Value
GGUUCGAAAGUGAGGAUAUGCUGGUCCUUGGAUCAGCAGAAGGCACAUGAGGAUCACCCAUGUGGUAACGGACC [Mat - Exclusion 4 - Eli Mod - D37] (Eterna round: R97, puzzle: Brourd's mod of Exclusion 4)	MS2 coat protein	apparent KD of MS2 coat protein	nM	25.2

Look up apparent KD of MS2 coat protein for this sequence: AGGUGUAGAGGAUAUUCAUUCUUCCACAUGAGGAUCACCCAUGUCCCGGUCACCAGGGACGGAGAAGGCUACACCA [Omei Ex5 D26] (Eterna round: R97, puzzle: Exclusion 5)
76.8

Please look up its apparent KD of MS2 coat protein: AUCUUGUCAGGAUAUCUUACAUAACAAUCGUAGUUACCAUUGGAGAAGGGACAUGAGGAUCACCCAUGUUAGCC [tap-tap-tappy42] (Eterna round: R97, puzzle: Exclusion 4)
19.8

Form field: reported apparent KD of MS2 coat protein of CAGUACUGAGGAUAUACAUGAGGAUCACCCAUGUGAGUGAUACUAGUGAGGUCGAUUAGUAGAAGGCAGUACUG [Mat X3R4 m27] (Eterna round: R97, puzzle: Exclusion 3)
123

What value of measured apparent KD of MS2 coat protein is listed for CCACGUCCGUACGUAUACUUGUCUCCUGAAAGAAAGGGCACAUGAGGAUCACCCAUGUUUUUGCUCGUCUUAUGAGC [JR_Sensorv2_tov2_Sub714] (Eterna round: R96, puzzle: Sensor v2, turn-off variant 2) ?
22.8

Quick check: apparent KD of MS2 coat protein of UAUAAGAUAGGAUAUACAGGCCCGUCUUCAUAUUGAUCCCGACAUGAGGAUCACCCAUGUAGAAGGAUCGUAUA [Mod 23 - Jieux - Exclusion 2] (Eterna round: R97, puzzle: Exclusion 2) ?
21.9
